meta.source: ChEMBL document CHEMBL3352351

# TESTED ON: Hepatocyte growth factor receptor (Homo sapiens)
# Sequence (P08581 whole entry): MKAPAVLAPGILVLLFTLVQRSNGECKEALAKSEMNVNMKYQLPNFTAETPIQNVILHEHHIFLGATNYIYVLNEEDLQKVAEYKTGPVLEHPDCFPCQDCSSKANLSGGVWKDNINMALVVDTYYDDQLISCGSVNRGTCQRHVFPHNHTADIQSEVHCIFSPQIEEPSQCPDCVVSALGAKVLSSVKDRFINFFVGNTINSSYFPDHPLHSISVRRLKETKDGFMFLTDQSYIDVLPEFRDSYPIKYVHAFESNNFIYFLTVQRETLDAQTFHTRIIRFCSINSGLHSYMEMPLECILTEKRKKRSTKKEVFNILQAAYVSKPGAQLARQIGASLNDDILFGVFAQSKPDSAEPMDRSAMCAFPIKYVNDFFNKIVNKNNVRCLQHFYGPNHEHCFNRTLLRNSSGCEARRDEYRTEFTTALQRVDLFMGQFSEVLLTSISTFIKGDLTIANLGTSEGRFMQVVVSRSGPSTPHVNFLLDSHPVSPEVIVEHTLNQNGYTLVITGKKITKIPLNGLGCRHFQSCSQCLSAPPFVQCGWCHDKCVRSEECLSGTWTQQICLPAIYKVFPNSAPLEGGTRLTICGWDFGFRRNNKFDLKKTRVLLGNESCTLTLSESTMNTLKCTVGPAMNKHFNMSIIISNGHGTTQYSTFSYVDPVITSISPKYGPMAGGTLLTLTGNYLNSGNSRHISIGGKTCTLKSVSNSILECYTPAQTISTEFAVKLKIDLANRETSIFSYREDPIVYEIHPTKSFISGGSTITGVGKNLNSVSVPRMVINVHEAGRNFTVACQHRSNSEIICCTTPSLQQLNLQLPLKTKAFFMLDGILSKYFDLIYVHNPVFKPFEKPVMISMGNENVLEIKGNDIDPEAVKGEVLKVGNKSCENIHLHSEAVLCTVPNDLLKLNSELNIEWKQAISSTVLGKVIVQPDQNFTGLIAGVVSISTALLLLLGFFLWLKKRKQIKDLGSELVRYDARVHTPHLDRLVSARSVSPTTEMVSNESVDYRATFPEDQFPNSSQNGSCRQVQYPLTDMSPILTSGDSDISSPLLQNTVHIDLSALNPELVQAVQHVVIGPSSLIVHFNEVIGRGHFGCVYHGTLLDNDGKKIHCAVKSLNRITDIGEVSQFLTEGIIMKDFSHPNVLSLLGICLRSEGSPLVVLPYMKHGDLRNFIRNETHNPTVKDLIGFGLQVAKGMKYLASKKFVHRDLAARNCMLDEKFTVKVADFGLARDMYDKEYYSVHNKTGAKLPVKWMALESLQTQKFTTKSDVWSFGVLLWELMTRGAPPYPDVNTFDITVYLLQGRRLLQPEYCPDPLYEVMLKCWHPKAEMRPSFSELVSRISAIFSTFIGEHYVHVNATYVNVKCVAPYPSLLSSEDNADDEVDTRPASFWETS
RECORDED ENDPOINT: pIC50
Numbers only, as −log10 of the molar value.

Look up pIC50: COc1cc2c(Oc3ccc(NC(=O)c4nnn(-c5ccccc5C(F)(F)F)c4C(F)(F)F)cc3F)ccnc2cc1OCCCN1CCCC1
8.43

----------
# PROTOCOL SUMMARY: Cytotoxicity against human H460 cells after 72 hrs by MTT assay
# CONDITION: NCI-H460, 72 h
I'd be grateful if you could share measured pIC50 for these entries.
Answers are plain numbers, as −log10 of the molar value.

{"columns": ["QUERY SMILES", "RESULT NUMBER"],
 "data": [
  ["COc1cc2c(Oc3ccc(NC(=O)c4nnn(-c5ccccc5C(F)(F)F)c4C(F)(F)F)cc3F)ccnc2cc1OCCCN1CCCC1", 6.57]
]}

Moving on to the next compound.
Look up pIC50: COc1cc2c(Oc3ccc(NC(=O)c4nnn(-c5ccc(F)cc5)c4C(F)(F)F)cc3F)ccnc2cc1OCCCN1CCCC1
6.82

----------
# TESTED ON: Mast/stem cell growth factor receptor Kit (Homo sapiens)
# Sequence (P10721 whole entry): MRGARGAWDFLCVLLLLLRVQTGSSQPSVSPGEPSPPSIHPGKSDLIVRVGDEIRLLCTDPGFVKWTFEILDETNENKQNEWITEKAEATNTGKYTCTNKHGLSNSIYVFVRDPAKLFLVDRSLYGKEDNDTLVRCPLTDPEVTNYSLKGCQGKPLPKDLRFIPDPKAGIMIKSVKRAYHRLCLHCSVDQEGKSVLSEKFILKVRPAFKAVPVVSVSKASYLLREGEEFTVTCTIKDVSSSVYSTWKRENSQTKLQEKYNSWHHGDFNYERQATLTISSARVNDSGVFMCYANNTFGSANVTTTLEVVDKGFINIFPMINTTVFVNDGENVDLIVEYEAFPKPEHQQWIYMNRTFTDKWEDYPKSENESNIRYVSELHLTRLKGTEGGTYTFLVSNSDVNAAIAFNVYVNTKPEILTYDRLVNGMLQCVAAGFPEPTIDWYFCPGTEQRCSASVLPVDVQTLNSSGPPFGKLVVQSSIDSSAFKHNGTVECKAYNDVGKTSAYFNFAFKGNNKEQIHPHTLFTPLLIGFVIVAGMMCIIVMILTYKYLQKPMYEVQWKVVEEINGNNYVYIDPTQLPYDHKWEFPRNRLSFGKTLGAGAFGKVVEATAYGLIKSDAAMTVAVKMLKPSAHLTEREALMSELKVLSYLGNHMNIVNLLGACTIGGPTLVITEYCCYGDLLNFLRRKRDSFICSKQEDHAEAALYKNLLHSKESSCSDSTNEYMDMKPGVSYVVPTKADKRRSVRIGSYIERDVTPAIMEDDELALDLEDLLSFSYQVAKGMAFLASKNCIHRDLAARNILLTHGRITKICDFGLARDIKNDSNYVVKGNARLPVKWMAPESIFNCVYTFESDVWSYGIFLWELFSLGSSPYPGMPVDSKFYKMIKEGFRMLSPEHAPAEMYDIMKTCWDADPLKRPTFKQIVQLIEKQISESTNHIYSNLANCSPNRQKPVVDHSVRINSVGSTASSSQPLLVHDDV
RECORDED ENDPOINT: pIC50
One number for each entry, as −log10 of the molar value.

Look up pIC50: COc1cc2c(Oc3ccc(NC(=O)c4nnn(-c5ccc(F)cc5)c4C(F)(F)F)cc3F)ccnc2cc1OCCCN1CCCC1
8.40
